The measurements presented in this section are drawn from patent US8048455B2.

molecular target: COX-2 enzyme (Ovis aries, UniProt P79208)
Sequence (P79208 17-603): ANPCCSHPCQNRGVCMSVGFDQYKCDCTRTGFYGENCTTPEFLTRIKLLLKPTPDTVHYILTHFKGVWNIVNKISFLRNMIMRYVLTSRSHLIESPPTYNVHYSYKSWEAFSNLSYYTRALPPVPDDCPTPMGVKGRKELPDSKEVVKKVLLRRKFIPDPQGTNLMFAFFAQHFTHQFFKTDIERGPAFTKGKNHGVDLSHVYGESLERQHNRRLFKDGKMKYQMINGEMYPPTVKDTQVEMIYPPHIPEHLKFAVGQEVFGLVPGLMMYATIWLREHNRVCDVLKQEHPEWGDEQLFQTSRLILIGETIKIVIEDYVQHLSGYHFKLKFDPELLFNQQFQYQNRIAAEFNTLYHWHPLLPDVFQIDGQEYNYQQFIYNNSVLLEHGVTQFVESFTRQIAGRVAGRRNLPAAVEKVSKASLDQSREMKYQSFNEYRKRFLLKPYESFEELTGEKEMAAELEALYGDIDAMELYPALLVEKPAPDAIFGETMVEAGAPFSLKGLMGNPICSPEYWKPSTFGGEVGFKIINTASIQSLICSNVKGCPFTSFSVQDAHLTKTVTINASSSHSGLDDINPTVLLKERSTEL

SMILES NOTATION: CC/C=C\C/C=C\C/C=C\CCCCCCCC(=O)OC[C@H](CO[C@@H]1O[C@H](CO)[C@H](O)[C@H](O)[C@H]1O)OC(=O)CCCCCCC/C=C\C/C=C\C/C=C\CC
IC50 / µM: 5.35
